Assay: Clinical pharmacological trial: pharmacokinetics after single-dose edoxaban 15 mg in individuals with renal functional impairment
Conditions: human, in vivo, 15 mg, CLR Geometric mean (renal clearance), single-dose 15 mg; moderate renal impairment (30 ≦ CLCR < 50 mL/min)
Description: Edoxaban was subjected to a clinical trial targeting individuals with renal functional impairment, in which edoxaban was studied for its pharmacokinetics in the individuals with renal functional impairment (Non-patent literature 4). In this clinical trial, 15 mg of edoxaban was administered at a single dose to each patient in five groups differing in the severity of renal functional impairment.
valueKind: CL renal (mL/min)

testSmiles	experimentalResult
CN1CCc2nc(C(=O)N[C@@H]3C[C@@H](C(=O)N(C)C)CC[C@@H]3NC(=O)C(=O)Nc3ccc(Cl)cn3)sc2C1	67.4
